- Target Or System: 5-hydroxytryptamine receptor 1D (Homo sapiens, UniProt P28221)
- Sequence (P28221 whole entry): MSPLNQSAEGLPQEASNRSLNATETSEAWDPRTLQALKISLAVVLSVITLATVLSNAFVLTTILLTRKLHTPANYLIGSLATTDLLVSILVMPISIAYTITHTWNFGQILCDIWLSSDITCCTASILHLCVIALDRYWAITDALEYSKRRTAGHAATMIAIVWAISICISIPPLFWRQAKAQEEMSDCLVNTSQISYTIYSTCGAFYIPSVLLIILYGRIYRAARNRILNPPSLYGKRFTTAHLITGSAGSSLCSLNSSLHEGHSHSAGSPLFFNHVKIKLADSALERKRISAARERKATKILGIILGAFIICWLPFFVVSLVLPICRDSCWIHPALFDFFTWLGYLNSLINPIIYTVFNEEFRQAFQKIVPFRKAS
- Assay Details: Ability to displace [3H]-5-HT from recombinant human 5-hydroxytryptamine 1D receptor stably expressed in CHO cells determined in vitro
- Format: cell-based
Metric: pIC50
Give bare numbers, as −log10 of the molar value.

# Smiles Code, Metric, Data Value
records = [
    ("Cc1ccccc1CNCC1(O)CCN(CCCc2c[nH]c3ccc(-n4cnnc4)cc23)CC1", "pIC50", 8.40),
    ("OC1(CNCc2ccccn2)CCN(CCCc2c[nH]c3ccc(-n4cnnc4)cc23)CC1", "pIC50", 8.49),
]

Please look at the following compound next.
pIC50 measured on OC1(Cc2ccccc2)CCN(CCCc2c[nH]c3ccc(-n4cnnc4)cc23)CC1 = 10.00
